read-out: Bcl-2 (BAD) gene, BAD (gene 572); assay: LTEA_HepaRG_BAD: Life Technologies and Expression Analysis (LTEA) Assay for Bcl-2 (BAD) gene using HepaRG (AID 2283469); conditions: mRNA level, 48 h; actives raise or lower the signal
The source made the active and inactive calls. Rule for the calls: active = hit-call score of the fitted dose curve at least 0.9, where 1 is the maximum; inactive = score below 0.9.
READOUT_TYPE: outcome

The examples below pair each entry with its known result.
Return outcome (reported value) for this compound: Cc1ccc(Cl)cc1 inactive

Return outcome (reported value) for this compound: CN[C@H]1CC[C@@H](c2ccc(Cl)c(Cl)c2)c2ccc(S(N)(=O)=O)cc21 inactive

Return outcome (reported value) for this compound: C[C@]12C=CC(=O)C=C1CC[C@@H]1[C@@H]2C(=O)C[C@@]2(C)[C@H]1CC[C@]2(O)C(=O)CO inactive

Return outcome (reported value) for this compound: Cc1ccc(C(C)C)c(O)c1 inactive

Return outcome (reported value) for this compound: CCCCCCCCCCCCCO inactive

Provide reported outcome for each item, in the same order as listed.
1. Cc1ccccc1Cl
2. Nc1ccccc1N
3. CCOC(=O)C(C)(C)Oc1ccc(Cl)cc1

1. inactive
2. inactive
3. inactive

Provide reported outcome for each item, in the same order as listed.
1. Cc1nc(C)nc(N2C[C@@H](C)N(c3ccnc([C@@H](C)O)n3)[C@@H](C)C2)n1
2. CC1(C)CC(N=C=O)CC(C)(CN=C=O)C1 (centres undefined)
3. CCCCCCCCCCO
4. Cc1ccc(N(C)C)cc1
5. Cc1cc(=O)[nH]c(=S)[nH]1
6. CN1CCN(Cc2cc(-c3ccc4[nH]c(=O)oc4c3)co2)[C@@H](c2ccc(F)cc2)C1

inactive
inactive
inactive
inactive
inactive
inactive

Source: PubChem BioAssay (EPA / NIEHS)
